system: MS2 coat protein; test: apparent KD of MS2 coat protein; designed switch direction (-1 OFF switch, 1 ON switch): -1; higher = weaker reporter binding; settings: input ligand: none
OBSERVABLE: apparent KD of MS2 coat protein (nM)
One number for each entry, in nM.

CHAIN	apparent KD of MS2 coat protein (nM)
AACCUGAGGCAAAGCUUUAGGUGUACAUGAGGAUCACCCAUGUAGGAUAUGGUAGGCUUUGCUUACCAGAAGGACAUUAUGAUG [Mat - Exclusion NG 3 - Mod of JL - D50] (Eterna round: R96, puzzle: Exclusion NG 3)	51.7
AGCCCUGCAGGAUAUGUCGAGGAUAACAUGAGGAUCACCCAUGUGACCGAUUGUUAGACUGCAGAAGGGCAUGGGA [salish99_ex5_r4_304] (Eterna round: R97, puzzle: Exclusion 5)	70.6
UAAAGUAUAUAGGAUAUCUAGCUGGAUACAGCUAGAGAAGGAUGUACAUGAGGAUCACCCAUGUAGAUCUCAAA [Ex6/15-A1] (Eterna round: R97, puzzle: Exclusion 6)	14.8
GCAUGCUCCGAGGAUAUCGAAGCUAAUUAUGCACGAGAAGGCGGAACAUGAGGAUCACCCAUGUGAUGCCAAUG [Qutequen] (Eterna round: R97, puzzle: Exclusion 6)	21.6
GUUGCUACUGAGGAUAUUAUUUUACUCGACUGAUAAGAAGGCAGUACAUGAGGAUCACCCAUGUGGGUAGCCAG [Polaris16] (Eterna round: R97, puzzle: Exclusion 6)	19.3
AGAGUGCUGCGAGGAUAUACAUGAGGAUCACCCAUGUUUACCUGUGAGGCAAAGCCUCACAGGUUGUAGAAGGCGCAGUACUCA [Mat - Exclusion NG 2 - Mod of JL - D42] (Eterna round: R96, puzzle: Exclusion NG 2)	19.4

Kindly review the next sequence as well.
Incoming: Recorded apparent KD of MS2 coat protein of CUUUGCACGCUGCGGUCCUACAUGAGGAUCACCCAUGUGGUCUGGUGGCGUGGGUCGCCGGACUUGGCUCGUCUUGU [salish99_S_TOV1_R5_041] (Eterna round: R97, puzzle: Sensor, turn-off variant 1) , please.
Outgoing: 18.8
